A collection of compounds and their measured pIC50
Target: 1b (BK) NS5bΔ21 (Hepatitis C virus genotype 1b (isolate BK) (HCV))
Sequence (P26663 2420-2989): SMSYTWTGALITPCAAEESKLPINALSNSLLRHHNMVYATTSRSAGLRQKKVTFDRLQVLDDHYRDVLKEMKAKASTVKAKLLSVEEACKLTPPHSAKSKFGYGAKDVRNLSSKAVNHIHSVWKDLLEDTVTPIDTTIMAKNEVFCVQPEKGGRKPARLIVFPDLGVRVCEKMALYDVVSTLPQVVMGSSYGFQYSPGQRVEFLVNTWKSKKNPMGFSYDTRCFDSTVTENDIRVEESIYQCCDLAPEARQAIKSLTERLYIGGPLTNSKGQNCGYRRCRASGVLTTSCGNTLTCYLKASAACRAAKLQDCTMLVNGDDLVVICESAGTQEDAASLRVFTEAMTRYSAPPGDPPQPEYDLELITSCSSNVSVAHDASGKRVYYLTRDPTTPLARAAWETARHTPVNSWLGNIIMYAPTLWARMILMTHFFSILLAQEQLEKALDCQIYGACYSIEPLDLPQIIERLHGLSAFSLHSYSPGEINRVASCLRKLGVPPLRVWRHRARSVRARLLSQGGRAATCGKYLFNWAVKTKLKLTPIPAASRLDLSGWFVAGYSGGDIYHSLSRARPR
Test: HCV polymerase inhibition assay, genotype 1b
Format: biochemical, HCV genotype 1b (BK)
Settings: 1b (BK) NS5bΔ21, 33P-GTP incorporation; read-out: 1b polymerase IC50 (range class)
pIC50: −log10 of the molar value.

[
  {
    "compound": "CCN(c1cc2nn(-c3ccc(C)c(F)c3)c(C(=O)NC)c2cc1C1CC1)S(C)(=O)=O",
    "pIC50": "> 6.00"
  },
  {
    "compound": "CNC(=O)c1c2cc(C3CC3)c(N(CCCNC(=O)c3ncoc3C)S(C)(=O)=O)cc2nn1-c1ccc(Br)cc1",
    "pIC50": "> 6.00"
  },
  {
    "compound": "CNC(=O)c1c2cc(C3CC3)c(N(CCCNC(=O)c3ccccc3C(=O)O)S(C)(=O)=O)cc2nn1-c1ccc(Br)cc1",
    "pIC50": "> 6.00"
  },
  {
    "compound": "CNC(=O)c1c2cc(C3CC3)c(N3CCCC3=O)cc2nn1-c1ccc(NCC(C)C)cc1",
    "pIC50": "4.30 to 5.00"
  },
  {
    "compound": "CNC(=O)c1c2cc(C3CC3)c(N(CCCNC(=O)c3cccnc3)S(C)(=O)=O)cc2nn1-c1ccc(Br)cc1",
    "pIC50": "> 6.00"
  },
  {
    "compound": "CNC(=O)c1c2cc(C3CC3)c(N(CCNC(C)=O)S(C)(=O)=O)cc2nn1-c1ccc(Br)cc1",
    "pIC50": "5.00 to 6.00"
  },
  {
    "compound": "CNC(=O)c1c2cc(C3CC3)c(N(CCC3CCOC3)S(C)(=O)=O)cc2nn1-c1ccc(Cl)cc1 (stereo not shown)",
    "pIC50": "5.00 to 6.00"
  }
]
